target: G-protein coupled bile acid receptor 1 (Mus musculus); experiment: Agonist activity at mouse TGR5 expressed in human HEK293 cells co-expressing CRE-driven luciferase reporter gene assessed as luciferase activity incubated for 5.5 hrs by Steady-Glo based luciferase assay
pEC50: −log10 of the molar value.
quantity: pEC50

Example results:
| molecule | pEC50 |
| --- | --- |
| C.N[C@@H](CC(=O)N1CCCN(CC(=O)NCCOCCOCCOCCOCCOCCOCCOCCOCCNC(=O)CCc2cc(Cl)c(Oc3ccsc3C(=O)N3CCN(C4CC4)c4ccccc43)cc2Cl)C(=O)C1Cc1ccccc1)Cc1cc(F)c(F)cc1F (mixture of isomers) | 8.64 |
| CC1C(=O)N(CC(=O)NCCN(C)C(=O)CCc2cc(Cl)c(Oc3ccsc3C(=O)N3CCN(C4CC4)c4ccccc43)cc2Cl)CCCN1C(=O)C[C@H](N)Cc1cc(F)c(F)cc1F (mixture of isomers) | 8.22 |
| CC1C(=O)N(CC(=O)N(CCOCCOCCOCCOCCOCCOCCOCCOCCN(CC(=O)O)C(=O)CCc2cc(Cl)c(Oc3ccsc3C(=O)N3CCN(C4CC4)c4ccccc43)cc2Cl)CC(=O)O)CCCN1C(=O)C[C@H](N)Cc1cc(F)c(F)cc1F (mixture of isomers) | 8.47 |

A: CC1C(=O)N(CC(=O)NCCOCCOCCOCCNC(=O)CCc2cc(Cl)c(Oc3ccsc3C(=O)N3CCN(C4CC4)c4ccccc43)cc2Cl)CCCN1C(=O)C[C@H](N)Cc1cc(F)c(F)cc1F (mixture of isomers)
B: N[C@@H](CC(=O)N1CCCN(CC(=O)NCCOCCOCCOCCOCCOCCOCCNC(=O)CCc2cc(Cl)c(Oc3ccsc3C(=O)N3CCN(C4CC4)c4ccccc43)cc2Cl)C(=O)C1Cc1ccccc1)Cc1cc(F)c(F)cc1F (mixture of isomers)
C: O=C(O)CCc1cc(Cl)c(Oc2ccsc2C(=O)N2CCN(C3CC3)c3ccccc32)cc1Cl
stdin: Arrange the 3 molecules by rising pEC50, starting with the smallest. # format: label list in the order the request specifies
stdout: C, A, B
(C: 7.98, A: 8.37, B: 8.64)

---

experiment: Apparent permeability across apical to basolateral side in human Caco-2 cells at 20 uM and measured upto 95 mins by LC-MS/MS analysis; format: ADME, cell-based
quantity: Papp A→B at 1.583 h, 20 µM (nm/s)
Number in nm/s, nothing else.

According to the records, this compound CC1C(=O)N(CC(=O)N(CCOCCOCCOCCOCCOCCOCCOCCOCCN(CC(=O)O)C(=O)CCc2cc(Cl)c(Oc3ccsc3C(=O)N3CCN(C4CC4)c4ccccc43)cc2Cl)CC(=O)O)CCCN1C(=O)C[C@H](N)Cc1cc(F)c(F)cc1F (mixture of isomers) displays Papp A→B at 1.583 h, 20 µM of 0.1

---

assay: Water solubility at pH 6.8; assay type: physicochemical
quantity: solubility (µM)

| molecule | solubility / µM |
| --- | --- |
| N[C@@H](CC(=O)N1CCCN(CC(=O)NCCOCCOCCOCCOCCOCCOCCNC(=O)CCc2cc(Cl)c(Oc3ccsc3C(=O)N3CCN(C4CC4)c4ccccc43)cc2Cl)C(=O)C1Cc1ccccc1)Cc1cc(F)c(F)cc1F (mixture of isomers) | 20 |

A: CC1C(=O)N(CC(=O)NCCOCCOCCOCCOCCOCCNC(=O)CCc2cc(Cl)c(Oc3ccsc3C(=O)N3CCN(C4CC4)c4ccccc43)cc2Cl)CCCN1C(=O)C[C@H](N)Cc1cc(F)c(F)cc1F (mixture of isomers)
B: N[C@@H](CC(=O)N1CCCN(CC(=O)NCCOCCOCCOCCOCCOCCOCCOCCNC(=O)CCc2cc(Cl)c(Oc3ccsc3C(=O)N3CCN(C4CC4)c4ccccc43)cc2Cl)C(=O)C1Cc1ccccc1)Cc1cc(F)c(F)cc1F (mixture of isomers)
stdin: Min solubility? A | B Write down the label attached to your selection.
stdout: B
(B: 20 µM, A: 50 µM)

---

Biological target: UniProt Q80SS6
Sequence (Q80SS6 whole entry): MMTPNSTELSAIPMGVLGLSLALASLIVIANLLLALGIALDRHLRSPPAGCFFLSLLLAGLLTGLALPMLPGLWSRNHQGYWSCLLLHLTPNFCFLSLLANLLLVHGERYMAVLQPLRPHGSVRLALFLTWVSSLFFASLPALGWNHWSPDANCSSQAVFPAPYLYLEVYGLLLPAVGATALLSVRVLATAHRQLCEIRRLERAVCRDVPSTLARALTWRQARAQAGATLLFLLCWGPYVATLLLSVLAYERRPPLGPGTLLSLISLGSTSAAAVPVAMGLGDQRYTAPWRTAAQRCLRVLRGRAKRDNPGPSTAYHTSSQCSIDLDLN
Assay: Agonist activity at mouse TGR5 expressed in human HEK293 cells co-expressing CRE-driven luciferase reporter gene assessed as luciferase activity incubated for 5.5 hrs by Steady-Glo based luciferase assay
pEC50: −log10 of the molar value.
quantity: pEC50

| molecule | pEC50 |
| --- | --- |
| CC1C(=O)N(CC(=O)NCCOCCOCCOCCOCCOCCOCCOCCOCCNC(=O)CCc2cc(Cl)c(Oc3ccsc3C(=O)N3CCN(C4CC4)c4ccccc43)cc2Cl)CCCN1C(=O)C[C@H](N)Cc1cc(F)c(F)cc1F (mixture of isomers) | 8.62 |
| N[C@@H](CC(=O)N1CCCN(CC(=O)NCCOCCOCCOCCOCCOCCNC(=O)CCc2cc(Cl)c(Oc3ccsc3C(=O)N3CCN(C4CC4)c4ccccc43)cc2Cl)C(=O)C1Cc1ccccc1)Cc1cc(F)c(F)cc1F (mixture of isomers) | 8.57 |

---

assay: Cmax in overnight-fasted ICR mouse Gall bladder at 30 mg/kg, po and measured upto 8 hrs by LC-MS/MS analysis; type: ADME, organism-based; parameters: dose 30 mg/kg, time < 8 hrs, route po
quantity: Cmax (ng/mL)
Hi! Could you send only the number? It should be in ng/mL, unit omitted.

Data point: CC1C(=O)N(CC(=O)N(CCOCCOCCOCCOCCOCCOCCOCCOCCN(CC(=O)O)C(=O)CCc2cc(Cl)c(Oc3ccsc3C(=O)N3CCN(C4CC4)c4ccccc43)cc2Cl)CC(=O)O)CCCN1C(=O)C[C@H](N)Cc1cc(F)c(F)cc1F (mixture of isomers) ; Cmax = 820

---

target: Dipeptidyl peptidase 4 (Mus musculus, UniProt P28843); test: Inhibition of mouse serum DPP4 assessed as cleavage of substrate by measuring AMC release using Gly-Pro-AMC as substrate by fluorescence based microplate reader assay
Sequence (P28843 whole entry): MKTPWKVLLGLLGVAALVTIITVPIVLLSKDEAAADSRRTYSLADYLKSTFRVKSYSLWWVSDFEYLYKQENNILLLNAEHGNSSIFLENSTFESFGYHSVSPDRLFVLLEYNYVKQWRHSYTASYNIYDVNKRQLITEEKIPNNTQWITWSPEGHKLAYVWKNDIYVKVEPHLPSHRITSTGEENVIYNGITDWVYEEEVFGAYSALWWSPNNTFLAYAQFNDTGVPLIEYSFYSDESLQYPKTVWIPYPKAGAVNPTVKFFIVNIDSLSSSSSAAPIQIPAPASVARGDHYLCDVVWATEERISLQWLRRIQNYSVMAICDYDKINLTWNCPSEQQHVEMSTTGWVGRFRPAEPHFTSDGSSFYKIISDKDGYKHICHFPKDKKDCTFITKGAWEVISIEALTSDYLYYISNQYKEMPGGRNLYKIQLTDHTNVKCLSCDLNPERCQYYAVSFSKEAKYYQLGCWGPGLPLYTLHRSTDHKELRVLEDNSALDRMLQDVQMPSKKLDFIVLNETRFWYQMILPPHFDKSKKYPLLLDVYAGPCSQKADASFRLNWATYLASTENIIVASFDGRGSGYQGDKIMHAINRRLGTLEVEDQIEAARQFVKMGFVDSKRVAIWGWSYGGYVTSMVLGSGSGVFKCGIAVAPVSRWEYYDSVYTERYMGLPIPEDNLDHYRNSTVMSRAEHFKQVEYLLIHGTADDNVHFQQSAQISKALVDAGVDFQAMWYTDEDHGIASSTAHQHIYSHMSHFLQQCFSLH
pIC50: −log10 of the molar value.
quantity: pIC50

| compound | pIC50 |
| --- | --- |
| CC1C(=O)NCCCN1C(=O)C[C@H](N)Cc1cc(F)c(F)cc1F (mixture of isomers) | 7.98 |
| CC1C(=O)N(CC(=O)NCCOCCOCCOCCOCCOCCOCCOCCNC(=O)CCc2cc(Cl)c(Oc3ccsc3C(=O)N3CCN(C4CC4)c4ccccc43)cc2Cl)CCCN1C(=O)C[C@H](N)Cc1cc(F)c(F)cc1F (mixture of isomers) | 7.26 |

A: N[C@@H](CC(=O)N1CCCN(CC(=O)NCCOCCOCCOCCOCCOCCNC(=O)CCc2cc(Cl)c(Oc3ccsc3C(=O)N3CCN(C4CC4)c4ccccc43)cc2Cl)C(=O)C1Cc1ccccc1)Cc1cc(F)c(F)cc1F (mixture of isomers)
B: CC1C(=O)N(CC(=O)NCCOCCOCCOCCOCCOCCOCCOCCOCCNC(=O)CCc2cc(Cl)c(Oc3ccsc3C(=O)N3CCN(C4CC4)c4ccccc43)cc2Cl)CCCN1C(=O)C[C@H](N)Cc1cc(F)c(F)cc1F (mixture of isomers)
C: CC1C(=O)N(CC(=O)NCCN(C)C(=O)CCc2cc(Cl)c(Oc3ccsc3C(=O)N3CCN(C4CC4)c4ccccc43)cc2Cl)CCCN1C(=O)C[C@H](N)Cc1cc(F)c(F)cc1F (mixture of isomers)
stdin: Would you mind ranking these compounds by ascending pIC50? Hello, could you send the labels back in the order asked? Thank you.
stdout: C, A, B

---

target: G-protein coupled bile acid receptor 1 (Homo sapiens, UniProt Q8TDU6); test: Agonist activity at human TGR5 expressed in human HEK293 cells co-expressing CRE-driven luciferase reporter gene assessed as luciferase activity incubated for 5.5 hrs by Steady-Glo based luciferase assay
Sequence (Q8TDU6 whole entry): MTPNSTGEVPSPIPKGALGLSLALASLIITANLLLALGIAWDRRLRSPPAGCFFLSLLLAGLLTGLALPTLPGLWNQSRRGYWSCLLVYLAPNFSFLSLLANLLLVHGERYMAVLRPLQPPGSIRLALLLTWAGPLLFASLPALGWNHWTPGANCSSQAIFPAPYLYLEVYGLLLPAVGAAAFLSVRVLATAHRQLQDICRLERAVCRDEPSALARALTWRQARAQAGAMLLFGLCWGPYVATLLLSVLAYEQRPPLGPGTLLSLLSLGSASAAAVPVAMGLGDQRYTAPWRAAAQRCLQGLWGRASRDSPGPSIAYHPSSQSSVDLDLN
quantity: EC50 (nM)

Sample answers from the record:
| compound | experimental-system | EC50, nM |
| --- | --- | --- |
| CC1C(=O)N(CC(=O)NCCOCCOCCOCCNC(=O)CCc2cc(Cl)c(Oc3ccsc3C(=O)N3CCN(C4CC4)c4ccccc43)cc2Cl)CCCN1C(=O)C[C@H](N)Cc1cc(F)c(F)cc1F (mixture of isomers) | G-protein coupled bile acid receptor 1 (Homo sapiens, UniProt Q8TDU6) | 4.5 |
| CC1C(=O)N(CC(=O)NCCOCCOCCOCCOCCOCCOCCOCCNC(=O)CCc2cc(Cl)c(Oc3ccsc3C(=O)N3CCN(C4CC4)c4ccccc43)cc2Cl)CCCN1C(=O)C[C@H](N)Cc1cc(F)c(F)cc1F (mixture of isomers) | G-protein coupled bile acid receptor 1 (Homo sapiens, UniProt Q8TDU6) | 2.8 |

I: CC1C(=O)N(CC(=O)N(CCOCCOCCOCCOCCOCCOCCOCCOCCN(CC(=O)O)C(=O)CCc2cc(Cl)c(Oc3ccsc3C(=O)N3CCN(C4CC4)c4ccccc43)cc2Cl)CC(=O)O)CCCN1C(=O)C[C@H](N)Cc1cc(F)c(F)cc1F (mixture of isomers)
II: N[C@@H](CC(=O)N1CCCN(CC(=O)NCCOCCOCCOCCOCCOCCOCCNC(=O)CCc2cc(Cl)c(Oc3ccsc3C(=O)N3CCN(C4CC4)c4ccccc43)cc2Cl)C(=O)C1Cc1ccccc1)Cc1cc(F)c(F)cc1F (mixture of isomers)
stdin: EC50 comparison. Which is larger, I or II ? Return value: the label identifying the chosen record.
stdout: I
